- Tested on: HCI09 (cells of a triple-negative luminal androgen receptor type breast cancer xenograft);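 note: PDX cells carrying CMV promoter-driven luciferase, viability read as total photon flux per second by IVIS imaging following D-luciferin, vehicle control 0.1% DMSO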
- Method notes: cell viability (% of vehicle); higher = less cytotoxic
- Protocol conditions: 10 µM; 72 h
Where a name gives a salt, the structure may show the parent alone.
Experimental endpoint: cell viability
When you answer, write just the number.

Some molecules with known cell viability results, for comparison:
CCOC(=O)C(CCc1ccccc1)NC(C)C(=O)N1C(C(=O)O)CC2CCCC21 (centres undefined) ... 86.7
Cc1ccc(Nc2nccc(N(C)c3ccc4c(C)n(C)nc4c3)n2)cc1S(N)(=O)=O.Cl [Pazopanib Hydrochloride] ... 77
O=C1CCC(N2C(=O)c3ccccc3C2=O)C(=O)N1 (centres undefined) [Thalidomide] ... 101

Any idea what its cell viability is? The molecule is C=C[C@]1(C)C[C@@H](OC(=O)CSC(C)(C)CNC(=O)[C@H](N)C(C)C)[C@]2(C)[C@H](C)CC[C@]3(CCC(=O)[C@H]32)[C@@H](C)[C@@H]1O [Valnemulin HCl]
66
